// provenance: the supplement of paper PMC9170038

Recorded apparent KD of MS2 coat protein values for a group of sequences are listed next.
# System: MS2 coat protein
# test: apparent KD of MS2 coat protein; designed switch direction (-1 OFF switch, 1 ON switch): 1; higher = weaker reporter binding
# experimental context: Eterna round: R95; input ligand: FMN 200 uM
# number only, unit µM dropped from output

See these solved cases before continuing.
sequence="AGUCCAGCCUGAGCUGGACGAAAGCAUGUACAUGAGGAUCACCCAUGUCAUGUACAAGCUUUUUGCUCGUCUUAAAA [Zipper 46 - 4] (puzzle: Sensor for hsa-mir-208a)" recorded_result=0.482
sequence="AGUCCAGCCUGAGCUGGACAAAAGCAUGUACAUGAGGAUCACCCAUGUUCAUGUACAAGCUUUUUGCUCGUCGUAAU [Mat - hsa-mir-208a - Mod of JL - 48] (puzzle: Sensor for hsa-mir-208a)" recorded_result=0.501
sequence="AGUCGAGCCUGAGCUCGACAAAAGCAUGUACAUGAGGAUCACCCAUGUCAUGUACAAGCUUUUUGCUCGUCUUAAAA [Mat - hsa-mir-208a - Mod of JL - D19] (puzzle: Sensor for hsa-mir-208a)" recorded_result=0.238

// query // output apparent KD of MS2 coat protein; input AAUGUCUCACAUGAGGAUCACCCAUGUCUUUGGAUGAAGCUUUUUGCUCGUCUUCAUUUUGCUCGUCUUACCCAUGU [SBY_1] (puzzle: Sensor for hsa-mir-208a version 2) ; system MS2 coat protein
// result 0.0448

// query Output reported apparent KD of MS2 coat protein of the sequence ACGUCGAGAUCACAGGAUAUACUCACAUCUACAUGAGGAUCACCCAUGUAGCGGUAUUCCGGUGCGUAGAAGGGUGAUCGACGAC [Same State 2 - Mod of Artece v.5] (puzzle: Same State 2) on MS2 coat protein.
// result 0.0146

// query Give the observed apparent KD of MS2 coat protein of GAGAGAGGAAGCGAGGAUAUCGUGUUAGGUACAUGAGGAUCACCCAUGUUGUAGGUAGAGGUAGGCGAGAAGGCGCAGGAGAGGU [JR_SS2_Sub095] (puzzle: Same State 2) for MS2 coat protein.
// result 0.0267

// query Recall the reported apparent KD of MS2 coat protein of UUCUUACAUGAGGAUCACCCAUGUGUUGUCGUGGGAGGAUAUCCUGGUUCGGUGGCGUUGGGAGAAGGCCUAUGUU [× ×•×ª×• ×ž×“×™× ×” × ×—×ª-19] (puzzle: Same State 1) on MS2 coat protein and write it down.
// result 0.476

// query State recorded apparent KD of MS2 coat protein with MS2 coat protein, entry UUAUAACAUGAGGAUCACCCAUGUCAACAAAGUCGAGGAUAUGGGCAAUUAUUAUUAGAACCAGAAGGCGAAAAUU [Mat - Same State 1 - Mod of UCT - D29] (puzzle: Same State 1) , no comment.
// result 0.0521

// query Tell me its apparent KD of MS2 coat protein on MS2 coat protein: GUAAAACAUGAGGAUCACCCAUGUAAUAAUAUGGGAGGAUAUCAGAUUUAAUUUAAUUUAUGAGAAGGCCUAAAGU [Mat - Same State 1 - Mod of Eli - D63] (puzzle: Same State 1)
// result 0.0944

// query Fetch value of apparent KD of MS2 coat protein on MS2 coat protein for UUGGUGUAGAUACAGGAUAUGUUGCUUGUAACAUGAGGAUCACCCAUGUAUCUAUGAGAUUAAAUGCAGAAGGGUGCACAUCACU [salish99_ss2_r3_089] (puzzle: Same State 2) .
// result 0.39

----------
# Tested on: MS2 coat protein
# test: apparent KD of MS2 coat protein; designed switch direction (-1 OFF switch, 1 ON switch): -1; higher = weaker reporter binding
# experimental context: Eterna round: R95; input ligand: FMN 200 uM
Assign Satisfied to entries whose apparent KD of MS2 coat protein meets or exceeds 70 nM; assign Not satisfied to the rest.

// query Dear colleague, could you confirm whether GAAAAGGUAGGAUAUACGAAAAGAAAGGGUAGAAGAAGAACACAUGAGGAUCACCCAUGUAGAAGGACCAAAAG [Mat - Exclusion 2 - Mod of my Tesla design - D1] (puzzle: Exclusion 2) has apparent KD of MS2 coat protein at or above 70 nM?
// result Satisfied

// query Given the entry GGUUGGCGAGGAUAUACAUGAGGAUCACCCAUGUGAGAGAAUAAAGUGAGAAAGAAAAGUAGAAGGCGCUGACG [Mat - Exclusion 3 - Mod of Salish D49] (puzzle: Exclusion 3) , answer whether its apparent KD of MS2 coat protein meets or surpasses 70 nM.
// result Satisfied

// query Is reported apparent KD of MS2 coat protein greater than or equal to 70 nM here: AAGAAACAUGAGGAUCACCCAUGUGAGGAUAUGAAAAAGAAAAGAAAAGAAAGAAGGUUCAGAAGGCACAAAGG [salish99-ex1_r3_027] (puzzle: Exclusion 1)
// result Not satisfied

// query State whether the measured apparent KD of MS2 coat protein reaches 70 nM, counting equality as reaching it, for CCUUUGUCAGGAUAUCAGAAAACGCCCGUAGGGAGCGCAAAUGAGAAGGGACAUGAGGAUCACCCAUGUAAAGA [Edvereri] (puzzle: Exclusion 4)
// result Satisfied

// query For this sequence, is measured apparent KD of MS2 coat protein 70 nM or higher? AAUAACUGAGGAUAUACUAUAAUAUGAAUAAAAUAAAUAAAACAUGAGGAUCACCCAUGUAGAAGGCAGAAUAA [JMF's Not so obvious solution 9] (puzzle: Exclusion 2)
// result Not satisfied

----------
# Test system: MS2 coat protein
# test: apparent KD of MS2 coat protein; designed switch direction (-1 OFF switch, 1 ON switch): -1; higher = weaker reporter binding
# experimental context: input ligand: FMN 200 uM
quantity name: apparent KD of MS2 coat protein (nM)
Write the number in nM without appending the unit.

Illustrative cases are given below, each with its answer.
sequence="AGCGAAAAGACAGGAUAUGAGAAUAGAUAGAGCUCAGAAGGGUCACAUGAGGAUCACCCAUGUAAAGUCUUGAGGCUGCGUGGU [Prohibition 11 - Jieux - Exclusion NG 1] (Eterna round: R96, puzzle: Exclusion NG 1)" unit_info=nM recorded_result=184
sequence="ACGACUGGAGGAUAUGCUCUGGGAGCGAUCGUAUAAGCAGUACUUGAGGAUCACCCAAGUAGAAGGUCAGCUCG [Riorus] (Eterna round: R97, puzzle: Exclusion 2)" unit_info=nM recorded_result=140
sequence="AGCCCUGCAGGAUAUGCCCGGGAUAACAUGAGGAUCACCCAUGUGACCGAUUGUUAUCCUGCAGAAGGGCAUGGGA [JL-EX5-4.12 ViennaUCT mod] (Eterna round: R97, puzzle: Exclusion 5)" unit_info=nM recorded_result=172

// query Give MS2 coat protein apparent KD of MS2 coat protein for the following sequence: GCGCACCUACCAAAAGGUAGGCCAACAUGAGGAUCACCCAUGUAGGAUAUCGAUUGCUUUGCAGUCGAGAAGGGCAUGAUGCGC [JL ENG3 3.80 Mod 20] (Eterna round: R96, puzzle: Exclusion NG 3)
// result 17.2

// query Please look at AAAUUAGCAAGUAGAUCCGACAUGAGGAUCACCCAUGUUAUCUGAAAGAACGCAGAAUAAUUGUGAGCUCGUCUAAA [Sensor-V1 #3] (Eterna round: R97, puzzle: Sensor, turn-off variant 1) and tell me its recorded apparent KD of MS2 coat protein on MS2 coat protein.
// result 162

// query Print MS2 coat protein apparent KD of MS2 coat protein for ACUUACCAUGUCAGGAUAUGUACUUAGAACGCGAUGCAGAAGGGACAUGAGGAUCACCCAUGUAAUGUCUGAUA [Eternabot (L2) Solution 2] (Eterna round: R97, puzzle: Brourd's mod of Exclusion 4) .
// result 51.6

// query GET apparent KD of MS2 coat protein where system = MS2 coat protein and item = CAGCUGAAUGUCAGGAUAUCUAGAGCGAUAGCUCUAGAGAAGGGACAUGAGGAUCACCCAUGUCACUCCAGCUG [BmEx4/3-B4] (Eterna round: R97, puzzle: Brourd's mod of Exclusion 4)
// result 29.5

// query Print MS2 coat protein apparent KD of MS2 coat protein for GCAGCAUAGUCGGAAACGACAGAACAUGAGGAUCACCCAUGUCAGGAUAUGGUCUGGAUUACAGGCCAGAAGGGACGAAGCUGC [Eli exng3 - 010] (Eterna round: R96, puzzle: Exclusion NG 3) .
// result 13.5

// query Fill: apparent KD of MS2 coat protein (MS2 coat protein) for this sequence GACUGCCGAGGAUAUACAUGAGGAUCACCCAUGUGCUUCAGUAUCGAAAGAUGCAUGGGUAGAAGGCGGUAGUC [LRO-Excl3-10] (Eterna round: R96, puzzle: Exclusion 3)
// result 912
